- Test system: U2932 TK216-resistant clone 3
- protocol notes: cell proliferation relative to vehicle (% of vehicle); higher = less growth inhibition
- assay context: 50 nM; 72 h
readout type: cell proliferation

The reported value for Cc1cc(Nc2cc(N3CCN(C)CC3)nc(Sc3ccc(NC(=O)C4CC4)cc3)n2)n[nH]1 [VX-680 (Tozasertib, MK-0457)] in terms of cell proliferation is 72.2

Others:
The reported value for `CCCc1ccc(OCC(=O)N(Cc2nc(-c3cccnc3)no2)C(C)C)cc1` in terms of cell proliferation is 103

The reported value for Cc1[nH]c2ccccc2c1CCNCc1ccc(/C=C/C(=O)NO)cc1 [Panobinostat (LBH589)] in terms of cell proliferation is 12.9

The reported value for C[C@@H]1C[C@H]2[C@@H]3CCC4=CC(=O)C=C[C@]4(C)[C@@]3(F)[C@@H](O)C[C@]2(C)[C@@]1(O)C(=O)CO [Dexamethasone (DHAP)] in terms of cell proliferation is 80.9
